// provenance: PubChem BioAssay

subject of test: Calcium-dependent protein kinase 1 (Plasmodium falciparum (isolate 3D7))
method notes: PfCDPK1 kinase inhibitors, biochemical, TCAMS library (AID 1159585);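 note: inhibitors leave more ATP so luminescence rises with inhibition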
condition context: recombinant PfCDPK1, Kinase-Glo ATP depletion luminescence
Entries with a potency or affinity are not part of this list. Active and inactive are the calls of the source. No cut-off is given here; in the data, nearly all actives have IC50 up to about 0.98 µM.
readout label: outcome

O=S(=O)(c1csc2ccccc12)N(CCC(O)(C(F)(F)F)C(F)(F)F)Cc1cccc(O)c1; inactive
CCOC(=O)c1ccc(NC(=O)NNC(=O)c2ccc(CCN3CCC(c4nc(COCC(F)(F)F)c(-c5ccc(F)cc5)o4)CC3)cc2)cc1; inactive
CS(=O)(=O)N(CC(O)Cn1c2ccc(Cl)cc2c2cc(Cl)ccc21)c1ccccc1 (centres undefined); inactive
CCCCC(O)c1cc(O)c2c(c1)OC(C)(C)CC2C1=CCN(Cc2ccc3ccccc3c2)CC1 (centres undefined); inactive
CCC(C)(C)n1c(C)cc2c3c(N)nc(N)nc3ccc21; inactive
COc1ccc2nc(N3CCNCC3)nc(NCCCc3ccccc3)c2c1; inactive
COC(=O)c1ccc(NC(=O)Nc2ccc(Cn3ncc(N4CCCNCC4)c(Cl)c3=O)cc2)cc1; inactive
Cc1cc(C)c(-c2n[nH]c3c2C(c2cccc(Cl)c2)N(Cc2ccco2)C3=O)c(O)c1 (centres undefined); inactive

Let's switch to this compound now.
Suppose we examine the compound COc1cc(F)c2nccc([C@@H](O)CN3CCC(NCc4cc5c(cc4F)OCCO5)CC3)c2c1 ; what outcome value has been reported?
inactive

---

subject of test: Protein kinase 7 (PK7), Plasmodium falciparum 3D7 (PF3D7_0213400) (UniProt Q7YTF7)
method notes: inhibition of Plasmodium PK7 catalytic activity – biochemical, TCAMS antimalarial set, Kinase-Glo luminescence (AID 1159587)
condition context: recombinant PfPK7, Kinase-Glo ATP depletion luminescence
Activity calls are given as the source filed them. The rule behind the calls is not given here.
readout label: outcome

Past entries and their recorded results:
COc1ccc(CCN(C)CCCN2CCC(NC(=O)c3cccc4c(=O)c5ccccc5[nH]c34)CC2)cc1OC; inactive
COc1ccc(-c2cccc(NC(=O)c3cccc(F)c3)c2)cc1CN1CCCN(C)CC1; inactive
CCOC(=O)c1cnc2c(OC)cc(OC)c(Cl)c2c1Nc1ccccc1; inactive
O=S(=O)(c1ccccc1)C1CC1; inactive
CCCCCCCCNCCCSCCCNCCCCCCCC; inactive

Give the reported outcome for CCc1nc2c(cnn2CC)c(NC2CCOCC2)c1CNC(=O)N1CCOCC1 (system: Protein kinase 7 (PK7), Plasmodium falciparum 3D7 (PF3D7_0213400) (UniProt Q7YTF7)).
inactive

Quick one: O=C(Nc1ccc(OC2CCN(Cc3ccccc3)C2)c(Cl)c1)c1ccco1 (stereo not given)
inactive

Quick one: CCOC(=O)C1=C(C)N=c2sc(=Cc3cc(Cl)ccc3O)c(=O)n2C1c1ccc(OC)cc1 (stereo not given)
inactive

Quick one: O=C(C=Cc1ccc(-c2nc3ccccc3[nH]2)cc1)NC1CCN(Cc2ccccc2)CC1
inactive

Quick one: Cc1nc(-c2cccc(C(=O)Nc3cnc4ccccc4c3)c2)no1
inactive

Quick one: COc1ccc(CCNCCCCCCNCCc2ccc(Cl)c(Cl)c2)cc1OC
inactive

Quick one: CCCc1cc(C)ccc1OCCCON1C(NC(=O)OCC)=NC(NC(=O)OCC)=NC1(C)C
inactive

Quick one: CCN(CC)CCNC(=O)c1ccc(NC(=O)c2cn(-c3ccccc3)nc2-c2cccs2)cc1
inactive

---

Some compounds, each annotated with its measured inhibition.
subject of test: L-lactate dehydrogenase (Plasmodium falciparum (isolate CDC / Honduras))
method notes: PfLDH activity inhibition – cell lysate, 3D7 strain, counter-screen for P. falciparum growth inhibition project (AID 2304);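 note: 0% = vehicle and 100% = reference inhibitor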
condition context: P. falciparum 3D7 crude extract, LDH APAD/NBT absorbance; at 2 µM; stronger effect = higher value
Use % as the unit, but write only the number.

Past entries and their recorded results:
CCN(CC)CCNC(=O)c1ccc(NC(=O)c2ccc(-c3cc(NC(=O)CC4CCCC4)ccc3C)cc2)cc1; -5
CCc1nc(N)nc(N)c1-c1ccc(C(C)C)cc1; 1
Nc1nc(-c2ccccn2)nc(-n2nc(-c3cccc(C(F)(F)F)c3)cc2N)n1; -5
CCOC(=O)c1cnc2c(OC)cc(OC)c(Cl)c2c1Nc1ccccc1; -3

Suppose we examine the compound CC1(C)N=C(N)N=C(N)N1OCCSCCON1C(N)=NC(N)=NC1(C)C ; what inhibition value has been reported?
-4

---

subject of test: L-lactate dehydrogenase (Plasmodium falciparum (isolate CDC / Honduras)) (UniProt Q27743)
Sequence (Q27743 whole entry, looked up): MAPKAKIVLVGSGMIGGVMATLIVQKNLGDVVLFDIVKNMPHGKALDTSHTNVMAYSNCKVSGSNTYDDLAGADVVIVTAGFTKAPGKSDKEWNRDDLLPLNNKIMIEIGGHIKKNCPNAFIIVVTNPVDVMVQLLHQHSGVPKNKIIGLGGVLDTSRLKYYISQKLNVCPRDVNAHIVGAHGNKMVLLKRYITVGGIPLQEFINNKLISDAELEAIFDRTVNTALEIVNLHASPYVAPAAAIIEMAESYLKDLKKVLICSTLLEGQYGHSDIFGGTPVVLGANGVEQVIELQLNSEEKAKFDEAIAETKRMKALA
method notes: PfLDH activity inhibition – cell lysate, 3D7 strain, counter-screen for P. falciparum growth inhibition project (AID 2304);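 note: 0% = vehicle and 100% = reference inhibitor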
condition context: P. falciparum 3D7 crude extract, LDH APAD/NBT absorbance; at 2 µM; stronger effect = higher value
Some compounds, each annotated with its measured inhibition.
Use % as the unit, but write only the number.

CCCCCCN1CCC(NCc2cccc(C(F)(F)F)c2)CC1; -6
O=C(Nc1ccc(-c2cccc(-c3nc4ccc(C(F)(F)F)cc4[nH]3)c2)cc1)c1ccc(=O)[nH]n1; -4

Let's switch to this compound now.
Suppose we examine the compound CCN(CC)CCCCNc1cc(-c2[nH]c(C(C)(C)C)nc2-c2ccc3cc(OC)ccc3c2)ccn1 ; what inhibition value has been reported?
5

---

method notes: antimalarial activity against Dd2 strain (AID 2302);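 note: 0% = DMSO untreated growth and 100% = chloroquine plus artemisinin killed control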
condition context: P. falciparum Dd2 in RBCs, LDH growth readout, 72 h; at 2 µM; stronger effect = higher value
readout label: growth inhibition (%)
Use % as the unit, but write only the number.

Past entries and their recorded results:
COc1cc2nc(Nc3ccc4c(c3)OCCO4)nc(N)c2cc1OC; 80
CN(C)CCOc1ccc(NC(=O)NC(C)(C)c2nc(-c3ccc(Cl)c(O)c3)c(-c3ccncc3)[nH]2)cc1; 98
O=C(c1ccccc1N=Nc1c(-c2ccccc2)[nH]n(-c2ccccc2)c1=O)N1CCOCC1; 2
Cc1cc(NCc2ccc(F)cc2)nc2cc(O)ccc12; 85
CC(=O)c1sc2ccccc2c1O; -2
O=C(Nc1ccc(C(F)(F)F)cc1)c1ccc(S(=O)(=O)NC2CCCN(CC3CCCCC3)C2)cc1 (stereo not given); -1
COc1cc(NC(=O)N2CCOC(CCN3CCC(c4ccccc4)CC3)(c3ccc(Cl)c(Cl)c3)C2)cc(OC)c1OC (stereo not given); 73
O=C(Nc1ccc(Cn2ncc(N3CCCNCC3)c(Cl)c2=O)cc1)Nc1ccc(OCc2ccccc2)cc1; 32
Cc1cc(NN=Cc2ccccc2F)c2cc(C(F)(F)F)ccc2n1; 67

Let's switch to this compound now.
Suppose we examine the compound COc1c(C2=CCN(CCCCNC(=O)c3ccc(-c4ccc(C#N)cc4)cc3)CC2)ccc2c1CCCC2 ; what growth inhibition value has been reported?
82

---

Some molecules, each annotated with its measured inhibition.
method notes: HepG2 cytotoxicity, primary screen, cytotoxicity control for P. falciparum antimalarial project, cell-based, ATP luminescence (AID 2303);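 note: 0% = DMSO wells and 100% = digitonin-killed cells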
condition context: HepG2 viability, 24-48 h, at 10 µM, stronger effect = higher value
Use % as the unit, but write only the number.

Cc1cc(Cl)ccc1N(Cc1ccccc1)c1ccnc(Cl)n1; 16
CC(C)(C)c1cc(C(=O)Nc2ccc(C(=N)N)cc2)c(O)c(C(C)(C)C)c1; 4
O=C(CN1CCN(C(C(=O)Nc2cc(C(F)(F)F)ccc2Cl)c2ccccc2)CC1)NC1CC1 (stereo not drawn); -6
CCc1c(CCNCCCCCCNCCc2ccc(OC)c(OC)c2C)ccc(OC)c1OC; 16

Suppose we examine the molecule Oc1ccc(CCCNc2nc(NCc3cccc4ccccc34)nc(N3CCNCC3)n2)cc1 ; what inhibition value has been reported?
9

Quick one: CC(C)c1ccc2[nH]c(C(=O)NC3CCC(N4CCCc5ccc(C#N)cc5C4)CC3)cc2c1 (stereo not drawn)
48

Quick one: CCOc1cc(C(=O)Nc2ccccc2N2CCN(S(C)(=O)=O)CC2)cc(OCC)c1OCC
-1

Quick one: CN1CCN(Cc2ccc(-c3cc4c(Nc5ccc(OCc6cccc(F)c6)c(Cl)c5)ncnc4s3)[nH]2)CC1
23

Quick one: FC(F)(F)c1ccc2nc(-c3ccc(-c4ccc(CNCCc5ccncc5)cc4)cc3)[nH]c2c1
26

Quick one: COc1ccc(C2C(C(=O)Nc3ccc4c(c3)OCO4)c3cc(OC)c(OC)cc3C(=O)N2C)cc1 (stereo not drawn)
12

---

method notes: HepG2 cytotoxicity, primary screen, cytotoxicity control for P. falciparum antimalarial project, cell-based, ATP luminescence (AID 2303);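 note: 0% = DMSO wells and 100% = digitonin-killed cells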
condition context: HepG2 viability, 24-48 h, at 10 µM, stronger effect = higher value
Some molecules, each annotated with its measured inhibition.
Use % as the unit, but write only the number.

Past entries and their recorded results:
Cc1cccc(-c2nc3[nH]c(=O)cc(NC(=O)C(C)C)n3n2)c1; -12
CS(=O)(=O)c1cccc(-c2cnc3[nH]cc(-c4ccc(CCC(=O)O)cc4)c3c2)c1; 1
O=C(COc1ccc(C(=O)c2ccccc2)cc1)Nc1nccs1; 0
COc1cc(Nc2nccc(N3CCC(NS(=O)(=O)c4ccc(NC(C)=O)cc4)CC3)n2)cc(OC)c1OC; -5

Suppose we examine the molecule CCNc1c2ccc(Cl)cc2nc2ccc(OC)cc12 ; what inhibition value has been reported?
16

Quick one: CCOc1cc(CC)ccc1C1CCN(CCCCNC(=O)c2ccc(NC(=O)c3ccc(Cl)cc3)cc2)CC1
11
